Test system: HOP-92 NSCLC
Assay: NCI tumour cell line growth inhibition, 48 h
metric: TGI

1) CC(C)(C)N1CC1CNC(=O)C(=O)NCC1CN1C(C)(C)C (stereo unspecified) : 33.3 µM
2) OC1C2CCCCN2C[C@@H](O)[C@H]1O (stereo partly specified) : > 100 µM
3) O=c1ccn(C/C=C/c2ccccc2)c(=S)n1C/C=C/c1ccccc1 : > 100 µM
4) Nc1[nH]c(=O)nc2c1cnn2COCCO : > 100 µM
5) c1cc2c(cc1C1OCC3C(c4ccc5c(c4)OCO5)OCC13)OCO2 (stereo unspecified) : > 100 µM

# evaluate next
Looking for the measured TGI of C/C=C\C1OC1(C)c1cc(=O)c2c(C)cc3c(c2o1)C(=O)c1c(O)c(C2CC(C)(N(C)C)C(OC(C)=O)C(C)O2)cc(C2CC(N(C)C)C(O)C(C)O2)c1C3=O (stereo unspecified) , can you help?
0.0251 µM
